Reference source: ChEMBL document CHEMBL1926563

System: Klebsiella pneumoniae
Experiment: Antibacterial activity against Klebsiella pneumoniae NCIM 2957 after 24 hrs by disk diffusion method
Type: functional
Conditions: NCIM 2957, 24 h
READOUT_KIND: MIC
# output: numeric value plus its unit

1. Clc1ccc2[nH]c3c(c2c1)CCCc1conc1-3; 100 µg/mL
2. Clc1ccc2[nH]c3c(c2c1)CCCc1cnn(-c2ccccc2)c1-3; 50 µg/mL
3. Clc1ccc2[nH]c3c(c2c1)CCCc1c[nH]nc1-3; 100 µg/mL

Entry Oc1ncc2c(n1)-c1[nH]c3ccc(Cl)cc3c1CCC2 — recorded MIC = 100 µg/mL

Field MIC (entry O=C(N[C@H](CO)[C@H](O)c1ccc([N+](=O)[O-])cc1)C(Cl)Cl ) reads 12.5 µg/mL

The reported MIC of the molecule Sc1ncc2c(n1)-c1[nH]c3ccc(Cl)cc3c1CCC2 was 100 µg/mL

----------
Test system: Klebsiella pneumoniae
Experiment: Antibacterial activity against Klebsiella pneumoniae NCIM 2957 assessed as zone of inhibition at 200 ug/disc after 24 hrs by disk diffusion method
Format: functional
Conditions: NCIM 2957, 24 h, read-out: DIZ
Listing of entries alongside the reported zone of inhibition at 200 µg/disc.
Answer with a number only, understood to be in mm.

// Clc1ccc2[nH]c3c(c2c1)CCCc1c[nH]nc1-3 : zone of inhibition at 200 µg/disc value = 32

For record Cc1ccc2[nH]c3c(c2c1)CCC/C(=C\O)C3=O the listed zone of inhibition at 200 µg/disc is 28

Lab note: measured zone of inhibition at 200 µg/disc of Clc1ccc2[nH]c3c(c2c1)CCCc1cnn(-c2ccccc2)c1-3 was 30

Sure, the documented zone of inhibition at 200 µg/disc for O=C1/C(=C/O)CCCc2c1[nH]c1ccccc21 is 26

// zone of inhibition at 200 µg/disc value for O=C(N[C@H](CO)[C@H](O)c1ccc([N+](=O)[O-])cc1)C(Cl)Cl : 42

Recorded zone of inhibition at 200 µg/disc (compound Cc1ccc2[nH]c3c(c2c1)CCCc1conc1-3 ): 29

----------
Tested on: Fusarium solani
Assay: Antifungal activity against Fusarium solani NCIM 1330 assessed as zone of inhibition at 100 ug/disc after 48 hrs by disk diffusion method
Format: functional
Details: NCIM 1330, 48 h, read-out: DIZ
Quick rule for you: zone of inhibition at 100 µg/disc at 20 mm or higher means y, lower means n.

Consider the following illustrative entries.
1) c1ccc2c3c([nH]c2c1)-c1n[nH]cc1CCC3; y
2) O=C1/C(=C/O)CCCc2c1[nH]c1ccc(Cl)cc21; y

hey, is zone of inhibition at 100 µg/disc for this one >= 20 mm? Cc1ccc2[nH]c3c(c2c1)CCCc1cnc(S)nc1-3
n

State whether the measured zone of inhibition at 100 µg/disc reaches 20 mm, counting equality as reaching it, for Cc1ccc2[nH]c3c(c2c1)CCCc1cnn(-c2ccccc2)c1-3
y

zone of inhibition at 100 µg/disc >= 20 mm for c1ccc2c3c([nH]c2c1)-c1nocc1CCC3 ?
y

----------
As shown below, each of these molecules has a reported zone of inhibition at 100 µg/disc value.
Tested on: Fusarium solani
Assay: Antifungal activity against Fusarium solani NCIM 1330 assessed as zone of inhibition at 100 ug/disc after 48 hrs by disk diffusion method
Format: functional
Settings: NCIM 1330, 48 h, read-out: DIZ
Write down the numeric answer in mm and omit the unit.

1. Cc1ccc2[nH]c3c(c2c1)CCCc1conc1-3; 31
2. Cc1ccc2[nH]c3c(c2c1)CCCc1c[nH]nc1-3; 34
3. Oc1ncc2c(n1)-c1[nH]c3ccccc3c1CCC2; 13

Just so you know, measured zone of inhibition at 100 µg/disc for CC(=O)N1CCN(c2ccc(OCC3COC(Cn4ccnc4)(c4ccc(Cl)cc4Cl)O3)cc2)CC1 (centres undefined) [KETOCONAZOLE] came out at 36

Form field zone of inhibition at 100 µg/disc, entry Clc1ccc2[nH]c3c(c2c1)CCCc1conc1-3 : 33

Data point: Cc1ccc2[nH]c3c(c2c1)CCCc1cnc(O)nc1-3 ; zone of inhibition at 100 µg/disc = 14

Record Sc1ncc2c(n1)-c1[nH]c3ccc(Cl)cc3c1CCC2 , field zone of inhibition at 100 µg/disc: 16

Entry Cc1ccc2[nH]c3c(c2c1)CCC/C(=C\O)C3=O — recorded zone of inhibition at 100 µg/disc = 23

Looking up O=C1/C(=C/O)CCCc2c1[nH]c1ccccc21 , I found its zone of inhibition at 100 µg/disc recorded as 21

// recorded zone of inhibition at 100 µg/disc for Oc1ncc2c(n1)-c1[nH]c3ccc(Cl)cc3c1CCC2 : 17

The measured zone of inhibition at 100 µg/disc associated with Clc1ccc2[nH]c3c(c2c1)CCCc1c[nH]nc1-3 reads 35

----------
Listed here: items and their measured zone of inhibition at 100 µg/disc.
Tested on: Fusarium solani
Experiment: Antifungal activity against Fusarium solani NCIM 1330 assessed as zone of inhibition at 100 ug/disc after 48 hrs by disk diffusion method
Format: functional
Conditions: NCIM 1330, 48 h, read-out: DIZ
State the value, then name its unit.

Per the records, this compound ( c1ccc(-n2ncc3c2-c2[nH]c4ccccc4c2CCC3)cc1 ) has zone of inhibition at 100 µg/disc equal to 28 mm

Entry Sc1ncc2c(n1)-c1[nH]c3ccccc3c1CCC2 , zone of inhibition at 100 µg/disc reported as 11 mm

Short answer for Clc1ccc2[nH]c3c(c2c1)CCCc1cnn(-c2ccccc2)c1-3 : zone of inhibition at 100 µg/disc was 32 mm
